- Test system: L1210 leukemia ip in BDF1 mice, survival T/C
- PROCEDURE SUMMARY: NCI In Vivo Anticancer Drug Screen. Data for tumor model L1210 Leukemia (intraperitoneal) in B6D2F1 (BDF1) mice
- TEST CONTEXT: endpoint: mean survival time; dose: 50.0 mg/kg/injection; schedule: Q04DX003 (ip); vehicle: Klucel (hydroxypropylcellulose) (HPC); higher = longer survival
Toxic doses and inconclusive results are not listed. Square brackets hold non-standard residues; d marks the D form. Peptide text beside a SMILES is read from it. * marks the point of attachment. ξ: configuration not given here. ξF = NC(Cc1ccccc1)C(=O)O; Cbz = O=C(OCc1ccccc1)*; CH2Cl = ClC*
QUANTITY KIND: T/C

Prompt: Quick one: T/C of [N-]=C(CC(=O)c1ccccc1)c1ccccc1.[N-]=C(CC(=O)c1ccccc1)c1ccccc1.[Ni+2] ?
Response: 91 % of control

Prompt: Quick one: T/C of CCCCCCCc1cc2ccccc2c2c(N)nc(N)nc12 ?
Response: 98 % of control

Prompt: Quick one: T/C of O=CNc1ccc(Cl)cc1 ?
Response: 92 % of control

Prompt: Quick one: T/C of CC(C)CC(C=NCC(CCN(C)C)(CC(C)C)c1cccc2ccccc12)(CCN(C)C)c1cccc2ccccc12 (centres undefined) ?
Response: 92 % of control

Prompt: Quick one: T/C of CC(C)(O)C1C2OC(=O)C1C1(O)CC3OC34C(=O)OC2C14C (centres undefined) ?
Response: 100 % of control

Prompt: Quick one: T/C of CCCCNC(=O)NS(=O)(=O)c1ccc(CCl)cc1 ?
Response: 98 % of control

Prompt: Quick one: T/C of COc1ccc(CCN2CC(=O)NC(=O)C2)cc1OC ?
Response: 104 % of control

Prompt: Quick one: T/C of CC1=C(Br)C(=O)C(c2c(C)cc(C)c(Br)c2C)=C(Br)C1=O ?
Response: 111 % of control

Prompt: Quick one: T/C of CN1CCC(=C2c3ccccc3C(O)c3ccccc32)CC1 (centres undefined) ?
Response: 98 % of control

Prompt: Quick one: T/C of O=C(CNC(=O)OCc1ccccc1)NCC(=O)NC(Cc1ccccc1)C(=O)CCl (stereo not drawn) (Cbz-Gly-Gly-[ξF]-CH2Cl) ?
Response: 98 % of control

Prompt: Quick one: T/C of O=C/C(Br)=C\c1ccccc1 ?
Response: 100 % of control

Prompt: Quick one: T/C of O=S1(=O)N=C(Cl)c2ccccc21 ?
Response: 105 % of control

Prompt: Quick one: T/C of Nc1nc2[nH]c(=O)cnc2c(=O)[nH]1 ?
Response: 107 % of control

Prompt: Quick one: T/C of CCCCCCCCCCCCCCCC(=O)NNC(C)C ?
Response: 91 % of control

* * *

- Test system: L1210 leukemia ip in BDF1 mice, survival T/C
- PROCEDURE SUMMARY: NCI In Vivo Anticancer Drug Screen. Data for tumor model L1210 Leukemia (intraperitoneal) in B6D2F1 (BDF1) mice
- TEST CONTEXT: endpoint: mean survival time; dose: 100.0 mg/kg/injection; schedule: Q04DX002 (ip); vehicle: Klucel (hydroxypropylcellulose) (HPC); higher = longer survival
Inconclusive results and toxic doses are left out.
Answer each item with its documented T/C.

Prompt: Quick one: T/C of CC(C)(C)c1ccc(SC(=O)Nc2cccc(Cl)c2Cl)cc1 ?
Response: 92 % of control

Prompt: Quick one: T/C of CCCC(=O)NC1Cc2cc(C)cc(C)c21 (configuration not stated) ?
Response: 111 % of control

Prompt: Quick one: T/C of O=c1c2cnc3c4cccnc4ccc3c2[nH]n1-c1ccccc1 ?
Response: 105 % of control

Prompt: Quick one: T/C of C/C([O-])=C(/c1nc(-c2ccc([N+](=O)[O-])o2)no1)[n+]1cc(C)ccc1C ?
Response: 95 % of control

Prompt: Quick one: T/C of CC(=O)Nc1ccc(/C=C/c2ccc([N+](=O)[O-])cc2)cc1 ?
Response: 96 % of control

Prompt: Quick one: T/C of CN(C)C1CS(=O)(=O)C1C1CS(=O)(=O)C1 (configuration not stated) ?
Response: 89 % of control

Prompt: Quick one: T/C of CNC(=S)N/N=C(\C=N\NC(=S)NC)c1ccc(C)cc1 ?
Response: 106 % of control

Prompt: Quick one: T/C of Cc1ccc(NC(=O)Oc2ccc(Nc3ccccc3)cc2)cc1 ?
Response: 98 % of control

Prompt: Quick one: T/C of CC(NC(=O)c1ccccc1)C(=O)O (configuration not stated) ?
Response: 90 % of control

Prompt: Quick one: T/C of CC1(C)C2CCC1(C)C(OCC(=O)O)C2 (configuration not stated) ?
Response: 96 % of control

Prompt: Quick one: T/C of COc1cccc(CBr)c1-c1c(CBr)cccc1OC ?
Response: 94 % of control

Prompt: Quick one: T/C of N#CCCn1c(=O)n(CCC#N)c(=O)n(CCC#N)c1=O ?
Response: 104 % of control
